test system: HT29 colon; assay: NCI tumour cell line growth inhibition, 48 h
Listed here: items and their measured TGI.

molecule: COc1cc(-c2cc(=O)c3c(OC)c(OC)c(OC)cc3o2)c(OC)c(OC)c1OC
TGI: > 75 µM

Supply measured TGI of CCOC(=O)N1C2C=C(C)C(ON2C(=O)c2ccccc2)C2C(C)C(=O)N21 (stereo unspecified) in your reply. > 100 µM

Supply measured TGI of O=C(NCCCCN(CCCNC(=O)C(F)(F)F)Cc1ccc2ccccc2c1)C(F)(F)F in your reply. 26.6 µM

Supply measured TGI of CCCN1CC=C(c2cc(C(=O)OCC)[nH]c2-c2cc(C)no2)C1=O in your reply. > 100 µM

Supply measured TGI of CC[O-].CC[O-].O=C([CH-]C(=O)c1cccnc1)c1ccccc1.O=C([CH-]C(=O)c1cccnc1)c1ccccc1.[Ti+4] in your reply. > 100 µM

---

tested on: 786-0 renal; assay: NCI tumour cell line growth inhibition, 48 h
property: TGI

molecule: COc1ccc(NC(=O)CC(=O)N2N=C(c3ccccc3)C(N=Nc3ccc(S(=O)(=O)CCOS(=O)(=O)O)cc3)C2=O)cc1 (stereo unspecified)
TGI: > 100 µM

molecule: CCOc1ccccc1NC(=O)c1cc2ccccc2cc1O
TGI: 9.13 µM

molecule: CC(=O)Oc1c(C)c2c(O)c3c1C1=C(OCOC1=C(C)C3=O)/C(C)=C\C(C)(O)C(O)C(C)C(O)C1C(=O)OC(C(C)C1O)C(C)(O)/C=C/C=C(C)C(=O)N2 (stereo unspecified)
TGI: > 100 µM

molecule: O=[N+]([O-])c1ccc2[nH]nc(OCc3ccccn3)c2c1
TGI: > 100 µM

molecule: O=C1C2C(C(=O)[N]1[Hg][c]1cccs1)C1(Cl)C(Cl)=C(Cl)C2(Cl)C1(Cl)Cl (stereo unspecified)
TGI: 1.81 µM

Supply measured TGI of COc1cc(-n2cc(-c3ccc(F)cc3)nc2SCc2ccccc2)cc(OC)c1OC in your reply. > 100 µM

Supply measured TGI of N#CCCN(c1ccc(/C=C2\N=C(Cc3ccccc3)OC2=O)cc1)S(=O)(=O)c1ccccc1 in your reply. > 100 µM

Supply measured TGI of N#Cc1c2c(c(Nc3cccc(C(F)(F)F)c3)n3c1nc1ccccc13)CCC2 in your reply. > 100 µM

Supply measured TGI of Cc1c(C#N)c2ccccc2c2nc3ccccc3n12 in your reply. > 100 µM

Supply measured TGI of Nc1nc(N)c(Cn2ccnc2)c(=O)[nH]1 in your reply. > 100 µM

Supply measured TGI of COC(=O)[C@H](Cc1ccccc1)NC(=O)N1CCCN(C(=O)N[C@@H](Cc2ccccc2)C(=O)OC)CCCN(C(=O)N[C@@H](Cc2ccccc2)C(=O)OC)CCC1 in your reply. 32.1 µM

Supply measured TGI of O=S(=O)(N/N=C/c1ccc(Cl)c(Cl)c1)c1ccccc1 in your reply. > 100 µM

Supply measured TGI of O=[N+]([O-])c1ccc(-c2nc3ccc([N+](=O)[O-])cc3[nH]2)cc1 in your reply. > 100 µM

Supply measured TGI of COc1ccc(/C=C/c2sc3ccccc3[n+]2CCCCI)cc1OC in your reply. > 10 µM

Supply measured TGI of CCOC(=O)C1C(c2ccc(OC)cc2)c2c([nH]n(-c3ccccc3)c2=O)CC1(O)OCC (stereo unspecified) in your reply. > 100 µM

Supply measured TGI of Cc1n[nH]c(=O)n1C1CCCC1 in your reply. > 100 µM

Supply measured TGI of CC(=O)N1CN2C(=O)CCC2c2ccccc21 (stereo unspecified) in your reply. > 100 µM

Supply measured TGI of O=C(O)C1=CCCc2ccc3ccccc3c21 in your reply. > 100 µM

Supply measured TGI of O=C1CCCC2C(O)CCC[C@H]12 (stereo partly specified) in your reply. > 100 µM

Supply measured TGI of Cc1ccc(Cc2n[nH]c(=O)n2-c2ccccc2)cc1 in your reply. > 100 µM

Supply measured TGI of Clc1ccc(/C=C/c2cc(N3CCOCC3)c3cc(Cl)c(Cl)cc3n2)cc1 in your reply. > 100 µM

---

tested on: MDA-MB-231 breast; test: NCI tumour cell line growth inhibition, 48 h
property: GI50

// known answers, use as guide
structure-smiles: O=c1c2ccccc2c(Br)c(Br)c2ccccc12
GI50: 19.9 µM
--
structure-smiles: O=c1cc(-c2ccccc2)oc2cc(O)c(O)c(O)c12
GI50: 14.1 µM
--
structure-smiles: Clc1cc2c(cc1Cl)Oc1cc(Cl)c(Cl)cc1O2
GI50: > 0.625 µM
--
structure-smiles: Nc1ncnc2c1ncn2Cc1ccc(C23CC4CC(CC(C4)C2)C3)c(OCc2cc(F)c(F)cc2F)c1
GI50: 6.39 µM
--
structure-smiles: COC(=O)C1=C(C)NC(C)=C(C(=O)OC)C1/C=C(\Cl)c1ccc(Cl)c(Cl)c1
GI50: 11.9 µM

Supply measured GI50 of Oc1ccc(CN2CCC(N3CCOCC3)CC2)c2cccnc12 in your reply. 47.9 µM

Supply measured GI50 of Cc1ccc2c(c1)c1nc3cc(C)c(C)cc3nc1n2CCN(C)C in your reply. 2.11 µM

Supply measured GI50 of Cc1ccc(NC(=O)Cc2ccc(/C=C/C(=O)c3ncc[nH]3)cc2)cc1 in your reply. 9.46 µM

Supply measured GI50 of Clc1ccc(/C=C/c2cc(N3CCOCC3)c3cc(Cl)c(Cl)cc3n2)cc1 in your reply. 11.1 µM

Supply measured GI50 of CCCCCc1nc2c(c3c1CCCC3)CCCC2 in your reply. 11 µM

Supply measured GI50 of C#CCN(Cc1nc2cc(C(F)(F)F)ccc2nc1-c1ccccc1)c1ccc(OC(F)(F)F)cc1 in your reply. 28.4 µM

---

Listed here: items and their measured TGI.
system: SF-268 CNS; assay: NCI tumour cell line growth inhibition, 48 h

compound: N#Cc1ncc(-c2ccc(C(F)(F)F)cc2)c(NCc2cc(C(F)(F)F)cc(C(F)(F)F)c2)n1
experimental-value: > 100 µM

compound: COC(=O)C1CCC(Nc2ccc(C)cc2C)=N1 (stereo unspecified)
experimental-value: > 100 µM

compound: CN(c1cc2ncc(=O)[nH]c2cc1NC(N)=NCc1ccc(Cl)cc1)C1CCCCC1
experimental-value: 14.7 µM

compound: O=c1[nH]c2ccc(Cl)cc2c2oc(-c3ccccc3)nc12
experimental-value: > 100 µM

compound: Cc1ccc(NP(=O)(Oc2ccccc2)N(CCCl)CCCl)cc1 (stereo unspecified)
experimental-value: > 100 µM

compound: N#Cc1c2c(c(Nc3cccc(C(F)(F)F)c3)n3c1nc1ccccc13)CCC2
experimental-value: > 100 µM

Supply measured TGI of CCOC(=O)/C(=N\OC)C(O)C(F)(F)F (stereo unspecified) in your reply. > 100 µM

Supply measured TGI of CC(C)c1nc2cc(C(F)(F)F)ccc2[nH]c1=O in your reply. > 100 µM

---

tested on: KM12 colon; experiment: NCI tumour cell line growth inhibition, 48 h; in the data active means GI50 below about 0.43 µM; inactive means the rest
Permitted responses: active, inactive

Test call, this compound: CC(=O)N1N=C(c2ccc(Nc3nc(Nc4ccc(Cl)cc4)nc(Nc4ccc(Cl)cc4)n3)cc2)CC1c1ccc([N+](=O)[O-])cc1 (centres undefined) inactive

Test call, this compound: COc1cc(-c2nc3sccn3c2-c2ccnc(NCCNS(=O)(=O)c3ccc(Cl)cc3)n2)ccc1F inactive

Test call, this compound: CCOc1ccccc1NC(=O)c1cc2ccccc2cc1O inactive

Test call, this compound: Cn1cc(C2=C(c3cccc(N)c3)C(=O)NC2=O)c2ccccc21 inactive

Test call, this compound: CC(=O)CCc1ccc(OC2OC(COC(=O)c3cc(O)c(O)c(O)c3)C(O)C(O)C2OC(=O)/C=C/c2ccccc2)cc1 (centres undefined) inactive

Test call, this compound: Cc1cc2cc3cc(C)c(N(C)C)cc3[n+](C)c2cc1N(C)C inactive

Test call, this compound: COc1cc2c(cc1OCCCCCOc1cc3c(cc1OC)C(=O)N1CC(F)C[C@H]1C=N3)N=C[C@@H]1CC(F)CN1C2=O (some centres undefined) active

Test call, this compound: CC(C)(O)C#Cc1ccc(/C=C/C(=O)c2ccccc2)s1 inactive

Test call, this compound: COc1cccc(C2C3=C(COC3=O)N(CCO)c3cc(OC)ccc32)c1 (centres undefined) active

---

Listed here: items and their measured GI50.
test system: HOP-62 NSCLC; assay: NCI tumour cell line growth inhibition, 48 h

// known answers, use as guide
compound: CN(Cc1ccc(Cl)cc1)c1ccc(CO)c(Cl)c1
target: HOP-62 NSCLC
property: GI50
experimental-value: 5.75 µM

compound: O=C1C2C(C(=O)[N]1[Hg][c]1cccs1)C1(Cl)C(Cl)=C(Cl)C2(Cl)C1(Cl)Cl (configuration not stated)
target: HOP-62 NSCLC
property: GI50
experimental-value: 2.52 µM

compound: CN(c1cc2ncc(=O)[nH]c2cc1NC(N)=NCc1ccc(Cl)cc1)C1CCCCC1
target: HOP-62 NSCLC
property: GI50
experimental-value: 8.84 µM

Now take the following compound into account.
Supply measured GI50 of CCOC(=O)c1sc2ncn(Cc3cccc(Br)c3)c(=O)c2c1C in your reply. 19.4 µM
